Kindly state melting point for each of the entries shown.

Sample records with melting point:
1. COc1ccc(/C(C)=N/N=C2/C(=O)Nc3cc(Br)ccc32)cc1S(N)(=O)=O; 276 to 278 °C
2. COc1ccc(/C(C)=N/N=C2/C(=O)Nc3ccc(OC(F)(F)F)cc32)cc1S(N)(=O)=O; 270 to 272 °C
3. COc1ccc(/C(C)=N/N=C2/C(=O)Nc3ccccc32)cc1S(N)(=O)=O; 250 to 252 °C
4. COc1ccc(/C(C)=N/N=C2/C(=O)Nc3ccc(F)cc32)cc1S(N)(=O)=O; 262 to 264 °C
5. COc1ccc(/C(C)=N/N=C2/C(=O)N(C)c3ccc(Br)cc32)cc1S(N)(=O)=O [Compound 11c]; 263 to 265 °C

Recorded result, COc1ccc(/C(C)=N/N=C2/C(=O)Nc3c(F)cccc32)cc1S(N)(=O)=O , melting point: 266 to 268 °C

----------
- Assay target: CA I (Homo sapiens, UniProt P00915)
- Sequence (P00915 whole entry): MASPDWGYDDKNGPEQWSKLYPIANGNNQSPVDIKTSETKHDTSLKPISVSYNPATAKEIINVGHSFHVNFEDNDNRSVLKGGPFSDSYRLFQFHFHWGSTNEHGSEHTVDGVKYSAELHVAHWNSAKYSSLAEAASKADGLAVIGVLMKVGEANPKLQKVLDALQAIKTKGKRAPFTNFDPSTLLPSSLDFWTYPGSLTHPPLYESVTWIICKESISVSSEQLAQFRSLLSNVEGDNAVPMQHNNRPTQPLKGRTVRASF
Value kind: Ki

Please state, for each entry, its recorded Ki.
1. COc1ccc(/C(C)=N/N=C2/C(=O)N(C)c3ccc(Br)cc32)cc1S(N)(=O)=O [Compound 11c]
2. COc1ccc(/C(C)=N/N=C2/C(=O)N(Cc3ccccc3)c3ccc(Cl)cc32)cc1S(N)(=O)=O [Compound 12b]
3. COc1ccc(/C(C)=N/N=C2/C(=O)N(C)c3ccc(Cl)cc32)cc1S(N)(=O)=O [Compound 11b]

> 100 µM
> 100 µM
> 100 µM

----------
- Assay target: VEGFR-2 (Homo sapiens, UniProt P35968)
- Construct: purchased BioAssay Systems EKIN-400
- Sequence (P35968 20-1356): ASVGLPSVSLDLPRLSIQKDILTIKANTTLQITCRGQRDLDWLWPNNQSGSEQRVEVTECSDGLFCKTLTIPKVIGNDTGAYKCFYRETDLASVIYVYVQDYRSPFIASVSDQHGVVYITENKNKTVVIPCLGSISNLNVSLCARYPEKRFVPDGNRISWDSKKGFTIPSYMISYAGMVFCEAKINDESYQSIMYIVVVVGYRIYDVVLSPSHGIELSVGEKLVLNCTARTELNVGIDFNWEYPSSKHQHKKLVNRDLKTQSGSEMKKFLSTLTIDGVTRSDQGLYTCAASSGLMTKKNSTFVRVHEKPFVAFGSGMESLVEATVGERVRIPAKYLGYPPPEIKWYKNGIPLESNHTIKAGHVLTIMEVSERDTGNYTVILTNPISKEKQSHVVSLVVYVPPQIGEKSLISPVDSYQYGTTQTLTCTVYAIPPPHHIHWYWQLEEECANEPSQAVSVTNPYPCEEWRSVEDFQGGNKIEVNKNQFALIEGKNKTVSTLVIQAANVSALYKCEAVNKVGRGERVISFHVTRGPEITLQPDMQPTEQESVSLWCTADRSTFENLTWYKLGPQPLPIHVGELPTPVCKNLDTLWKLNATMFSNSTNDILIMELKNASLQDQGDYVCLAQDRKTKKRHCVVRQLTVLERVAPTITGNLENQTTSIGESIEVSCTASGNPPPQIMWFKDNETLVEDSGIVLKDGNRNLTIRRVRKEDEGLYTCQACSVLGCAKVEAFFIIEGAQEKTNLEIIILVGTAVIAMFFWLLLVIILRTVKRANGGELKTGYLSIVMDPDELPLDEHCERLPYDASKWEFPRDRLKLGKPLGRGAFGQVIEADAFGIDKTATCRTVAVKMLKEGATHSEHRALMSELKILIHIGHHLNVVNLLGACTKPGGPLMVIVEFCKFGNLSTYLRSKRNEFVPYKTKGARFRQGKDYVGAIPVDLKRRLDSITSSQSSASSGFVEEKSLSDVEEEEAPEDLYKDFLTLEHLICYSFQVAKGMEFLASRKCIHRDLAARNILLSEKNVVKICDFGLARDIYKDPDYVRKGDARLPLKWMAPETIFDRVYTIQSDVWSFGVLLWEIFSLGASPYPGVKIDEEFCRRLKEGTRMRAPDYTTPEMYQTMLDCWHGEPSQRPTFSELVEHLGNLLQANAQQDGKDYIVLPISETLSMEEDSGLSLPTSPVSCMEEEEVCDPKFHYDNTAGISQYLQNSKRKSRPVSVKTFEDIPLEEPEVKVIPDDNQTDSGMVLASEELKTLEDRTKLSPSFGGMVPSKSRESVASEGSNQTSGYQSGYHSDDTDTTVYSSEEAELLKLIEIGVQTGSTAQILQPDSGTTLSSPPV
- Method notes: VEGFR-2 inhibition assay (HTRF)
- Type: biochemical
Provide the recorded inhibition at 10 µM for the entries that follow.
Give bare numbers, in %.

1) COc1ccc(/C(C)=N/N=C2/C(=O)N(Cc3ccccc3)c3ccc(Cl)cc32)cc1S(N)(=O)=O [Compound 12b]; 97.2
2) COc1ccc(/C(C)=N/N=C2/C(=O)N(C)c3ccc(Br)cc32)cc1S(N)(=O)=O [Compound 11c]; 92
3) COc1ccc(/C(C)=N/N=C2/C(=O)N(C)c3ccc(Cl)cc32)cc1S(N)(=O)=O [Compound 11b]; 72.7

Below: the item to evaluate.
inhibition at 10 µM recorded for this compound, COc1ccc(/C(C)=N/N=C2/C(=O)Nc3ccc(Br)cc32)cc1S(N)(=O)=O [Compound 6f] , is 86.8

----------
Could you please report measured inhibition at 10 µM for the items listed next?
- System: T47D cells
- Method notes: NCI in vitro single-dose cellular antiproliferative assay, T47D cells
- Type: cell-based
- Test context: Homo sapiens; T47D breast cancer cells, single concentration of 10 μM; read-out: GI% (growth inhibition)
One number for each entry, in %.

Worked examples follow.
1. COc1ccc(/C(C)=N/N=C2/C(=O)N(Cc3ccccc3)c3ccc(Br)cc32)cc1S(N)(=O)=O [Compound 12c]; 39
2. COc1ccc(/C(C)=N/N=C2/C(=O)N(C)c3ccc(Cl)cc32)cc1S(N)(=O)=O [Compound 11b]; 55
3. COc1ccc(/C(C)=N/N=C2/C(=O)Nc3ccc(Br)cc32)cc1S(N)(=O)=O [Compound 6f]; 54
4. COc1ccc(/C(C)=N/N=C2/C(=O)N(Cc3ccccc3)c3ccccc32)cc1S(N)(=O)=O [Compound 12a]; 57
5. COc1ccc(/C(C)=N/N=C2/C(=O)N(C)c3ccc(Br)cc32)cc1S(N)(=O)=O [Compound 11c]; 52
6. COc1ccc(/C(C)=N/N=C2/C(=O)N(Cc3ccccc3)c3ccc(Cl)cc32)cc1S(N)(=O)=O [Compound 12b]; 28

# ---- query compound ----
Entry COc1ccc(/C(C)=N/N=C2/C(=O)Nc3ccc(OC(F)(F)F)cc32)cc1S(N)(=O)=O [Compound 6i] , tested on T47D cells, has a reported inhibition at 10 µM of 32
